# Test method notes: chemical genetic growth profiling, strain panel (AID 1159580);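 also: tested at 20 µM; growth read once vehicle control cultures reached saturation at 30 °C; 1 = growth at the plate median or of vehicle wells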
# Condition summary: S. cerevisiae deletion strains, growth OD, locus YHR142W, strain chs7
Out of some 5,500 compounds screened, about 2,000 (36%) were called active. Inconclusive results (about 18%) are left out. Rule as the data show it: active = normalized growth mostly below about 0.91 (no sharp cut-off); inconclusive = no clear call, values can overlap the other calls; inactive = mostly above about 0.92. Some of the results follow.
Labels: active, inactive

Compound structure string	Answer label
NC[C@H]1O[C@H](O[C@H]2[C@H](O)[C@@H](O[C@H]3O[C@H](CO)[C@@H](O)[C@H](N)[C@H]3O)[C@H](N)C[C@@H]2N)[C@H](N)C[C@@H]1O	inactive
CC1(C)C=Cc2cc3ccc(=O)oc3cc2O1	active
NCCc1c[nH]c2ccccc12	inactive
COc1cc(-c2coc3cc(O[C@@H]4O[C@H](CO)[C@@H](O)[C@H](O)[C@H]4O)c(OC)c(O)c3c2=O)cc(O)c1OC	inactive
O=C(CCc1ccc(O)cc1)c1c(O)cc(O)cc1O[C@@H]1O[C@H](CO)[C@@H](O)[C@H](O)[C@H]1O	inactive

----------
# Test method notes: chemical genetic growth profiling, strain panel (AID 1159580)
# Condition summary: S. cerevisiae deletion strains, growth OD, locus YNL183C, strain NPR1
In all, about 5,500 compounds went through this assay and about 2,000 (36%) were called active. Roughly 18% stayed inconclusive and do not appear here. No stated cut-off is given here; in the data, active means normalized growth mostly below about 0.91 (no sharp cut-off); inconclusive means no clear call, values can overlap the other calls; inactive means mostly above about 0.92. The list shows a part of the results. Where a SMILES comes first, the peptide text is derived from it. [ ]: non-standard residue; d: D form. Orn = NCCC[CH](N)C(=O)O
Labels: label 1 for active, label 0 for inactive

Molecule	Answer label
O=C(Nc1cccnc1)c1cc2c(s1)-c1ccccc1CC2	label 1
COc1cc2c(cc1OC)[C@@H]1C(=O)c3ccc4c(c3O[C@@H]1CO2)CC(C(C)C)O4 (stereo partly drawn)	label 0
NCCNCCNCCN	label 0
COc1c2ccoc2cc2oc(C)cc(=O)c12	label 0
CO[C@@]1(NC(=O)Cc2cccs2)C(=O)N2C(C(=O)O)=C(COC(N)=O)CS[C@@H]21	label 0
COc1cc(OC)cc(N2C(=O)C=CC2=O)c1	label 1
CC(C)CC1NC(=O)C(CCCN)NC(=O)C(C(C)C)NC(=O)C2CCCN2C(=O)C(Cc2ccccc2)NC(=O)C(CC(C)C)NC(=O)C(CCCN)NC(=O)C(C(C)C)NC(=O)C2CCCN2C(=O)C(Cc2ccccc2)NC1=O (stereo not drawn) (cyclo(FPV[Orn]LFPV[Orn]L); configuration not given here)	label 0
CNCC[C@@H](Oc1ccccc1)c1ccccc1	label 0
CC(=O)Oc1ccccc1C(=O)O	label 0
CC(NCCC(c1ccccc1)c1ccccc1)c1ccccc1 (stereo not drawn)	label 0
CN(C(=O)C(Cl)Cl)c1ccc(OC(=O)c2ccco2)cc1	label 0
N#C/C(=N/Nc1cccc(C(F)(F)F)c1)C(=O)c1csc(-c2cccnc2)n1	label 1
CCC1C(=O)OCC1Cc1cncn1C (stereo not drawn)	label 0

----------
# Test method notes: chemical genetic growth profiling, strain panel (AID 1159580)
# Condition summary: S. cerevisiae deletion strains, growth OD, locus YOR290C, strain snf2, stronger effect = lower value
Screen size: about 5,500 compounds; about 2,000 (36%) were called active. Another 18% or so got no clear call; they are omitted. The list shows a part of the results.

Compound structure string	normalized growth
CC1(C)S[C@@H]2[C@H](NC(=O)[C@H](C(=O)O)c3cccs3)C(=O)N2[C@H]1C(=O)O	1.01
Cc1onc(-c2ccccc2Cl)c1C(=O)N[C@@H]1C(=O)N2[C@@H]1SC(C)(C)[C@@H]2C(=O)O	1.01
CCCCc1nc(Cl)c(CO)n1Cc1ccc(-c2ccccc2-c2nn[nH]n2)cc1	1
O=C(CCBr)N1CCN(C(=O)CCBr)CC1	1
NC[C@H]1O[C@H](O[C@H]2[C@H](O)[C@@H](O[C@H]3O[C@H](CO)[C@@H](O)[C@H](N)[C@H]3O)[C@H](N)C[C@@H]2N)[C@H](N)C[C@@H]1O	0.987

----------
# Test method notes: chemical genetic growth profiling, strain panel (AID 1159580)
# Condition summary: S. cerevisiae deletion strains, growth OD, locus YDR001C, strain nth1, stronger effect = lower value
The whole screen tested about 5,500 compounds, of which about 2,000 (36%) were called active. Inconclusive results (about 18%) are left out. The list shows a part of the results.
Param label: returns label 1 when normalized growth < 1, returns label 0 otherwise, including exact equality.

Molecule	Answer label
CNS(=O)(=O)Cc1ccc2[nH]cc(CCN(C)C)c2c1	label 0
CCOc1ccc(C(=O)c2ccc(OC)c(O)c2O)cc1	label 0
C1CCC(C(CC2CCCCN2)C2CCCCC2)CC1 (centres undefined)	label 1
COc1ccc(-c2oc3ccccc3c(=O)c2O)cc1OC	label 1

----------
# Test method notes: chemical genetic growth profiling, strain panel (AID 1159580)
# Condition summary: S. cerevisiae deletion strains, growth OD, locus YHR142W, strain chs7, stronger effect = lower value
The whole screen tested about 5,500 compounds, of which about 2,000 (36%) were called active. Inconclusive results (about 18%) are left out. The list shows a part of the results.

Compound	normalized growth
O=C(O)[C@H](O)[C@@](O)(Cc1ccc(O)cc1)C(=O)O	1.02
CC[C@@H](CO)NC(=O)[C@@H]1C=C2c3cccc4[nH]cc(c34)C[C@H]2N(C)C1	1.01
CC[C@H]1CN2CCc3cc(OC)c(OC)cc3C2C[C@@H]1CC1NCCc2cc(OC)c(OC)cc21 (stereo partly drawn)	0.972
CN(C)C(=N)N=C(N)N	1.02
CNCC[C@@H](Oc1ccccc1)c1ccccc1	0.973
CO[C@H]1C[C@H](O[C@H]2[C@H](C)[C@@H](OC3O[C@H](C)C[C@H](N(C)C)[C@H]3OC(C)=O)[C@@H](C)C[C@]3(CO3)C(=O)[C@H](C)[C@@H](OC(C)=O)[C@@H](C)[C@@H](C)OC(=O)[C@@H]2C)O[C@@H](C)[C@@H]1OC(C)=O (stereo partly drawn)	1.01
CC(=O)OCC(=O)[C@@]12OC3(CCCC3)O[C@@H]1CC1C3CCC4=CC(=O)C=C[C@]4(C)[C@@]3(F)[C@@H](O)C[C@@]12C (stereo partly drawn)	1
Cc1c(NC(=O)c2cccnc2)c(=O)n(-c2ccccc2)n1C	1

----------
# Test method notes: chemical genetic growth profiling, strain panel (AID 1159580)
# Condition summary: S. cerevisiae deletion strains, growth OD, locus YOL012C, strain htz1
Hit rate of the full screen: of about 5,500 compounds, about 2,000 (36%) were called active. About 18% were inconclusive and are not listed. Some of the results follow.

Compound	normalized growth
CC(NCCC(c1ccccc1)c1ccccc1)c1ccccc1 (stereo not given)	0.924
O=C(O)c1cc([N+](=O)[O-])ccc1NCCCc1ccccc1	0.889
COc1ccc(C(=O)O)c(O)c1OC	0.918
CCCCc1nc(Cl)c(CO)n1Cc1ccc(-c2ccccc2-c2nn[nH]n2)cc1	0.901
CN1C(=O)CCS(=O)(=O)C1c1ccc(Cl)cc1 (stereo not given)	0.9

----------
# Test method notes: chemical genetic growth profiling, strain panel (AID 1159580);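 also: tested at 20 µM; growth read once vehicle control cultures reached saturation at 30 °C; 1 = growth at the plate median or of vehicle wells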
# Condition summary: S. cerevisiae deletion strains, growth OD, locus YJL168C, strain set2, stronger effect = lower value
The campaign covered roughly 5,500 compounds. About 2,000 (36%) were called active. About 18% were inconclusive and are not listed. The list shows a part of the results.

Molecule	normalized growth
CNC(Cc1c[nH]c2ccccc12)C(=O)O (stereo not drawn)	0.992
COc1ccc(C2C(=O)c3ccccc3C2=O)cc1	1.02
NC[C@H]1O[C@H](O[C@H]2C(O[C@@H]3O[C@H](CO)[C@@H](O)[C@H]3O)[C@@H](O)[C@H](N)C[C@@H]2N)[C@H](N)[C@@H](O)[C@@H]1O (stereo partly drawn)	0.986

----------
# normalized growth values compiled below
# Test method notes: chemical genetic growth profiling, strain panel (AID 1159580);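 also: tested at 20 µM; growth read once vehicle control cultures reached saturation at 30 °C; 1 = growth at the plate median or of vehicle wells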
# Condition summary: S. cerevisiae deletion strains, growth OD, locus YNL322C, strain KRE1 (second series), stronger effect = lower value
About 2,000 (36%) of roughly 5,500 compounds were called active. Not shown: some 18% with an inconclusive outcome. This is one part of the list.

Compound	normalized growth
CC(=O)O[C@@H]1CC[C@]2(C)C3CC[C@]4(C)C(=O)CCC4C3CC[C@H]2C1 (stereo partly specified)	1.02
CC(=O)OC1CCC2(C)C3CC(=O)C4(C)C(CC5OC6(CCC(C)CO6)[C@@H](C)C54)C3CC[C@H]2C1 (stereo partly specified)	0.98
CCN(CC)CCNC(=O)c1cc(Cl)c(N)cc1OC	0.973
CC1(C)C(=O)[C@@H]2C[C@@]3(O)C4=CC(=O)O[C@@H](c5ccoc5)[C@]4(C)CCC3[C@@](C)(C2=O)[C@H]1CC(=O)O (stereo partly specified)	0.999
CNCC[C@@H](Oc1ccccc1)c1ccccc1	0.978
Cc1cc(C(C)(C)C)cc(C)c1CC1=NCCN1	1.01

----------
# Test method notes: chemical genetic growth profiling, strain panel (AID 1159580);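 also: tested at 20 µM; growth read once vehicle control cultures reached saturation at 30 °C; 1 = growth at the plate median or of vehicle wells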
# Condition summary: S. cerevisiae deletion strains, growth OD, locus YDR363W, strain ESC2, stronger effect = lower value
Out of some 5,500 compounds screened, about 2,000 (36%) were called active. Another 18% or so got no clear call; they are omitted. Some of the results follow.
# normalized growth values compiled below
Recorded metric: normalized growth

Molecule	Experimental value
NC(=O)NO	1.01
COc1cccc(C(=O)NCCN2CCN(c3ccc(Cl)cc3)CC2)c1	1.01
CCCCOC(=O)NS(=O)(=O)c1sc(CC(C)C)cc1-c1ccc(Cn2c(CC)nc3c(C)cc(C)nc32)cc1	0.988
NC(N)=NC(N)=Nc1ccccc1	1.02
CC(=O)NBr	1.01
O=C(O)CC1CCCc2ccccc2C1O (stereo not drawn)	1.02
Cc1cc(C(C)(C)C)cc(C)c1CC1=NCCN1	1
Cn1c(=O)c2[nH]c(-c3ccccc3)nc2n(C)c1=O	1.01
